tested target: FRMPD2_2, Q68DX3
Sequence (Q68DX3 944-1038): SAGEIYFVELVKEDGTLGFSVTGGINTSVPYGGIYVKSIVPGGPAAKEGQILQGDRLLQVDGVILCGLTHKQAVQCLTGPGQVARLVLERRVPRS
procedure summary: holdup assay
Set-up: key: below the threshold = too weak to quantify, mostly under pKd 3.1 to 4
conditions used: plain residues with an end cap or a label only (N-terminal biotin on a linker: ado-ado)
endpoint name: pKd

INSERT INTO results (binder, result) VALUES
  ('GNDPDRGTSI [GRID2, O43424]', 'below the threshold'),
  ('LLQEEWETVM [PTH1R, Q03431]', 'below the threshold'),
  ('TKDKVQETQI [LRRC4, Q9HBW1]', 3.82),
  ('NSTHNLKDYV [CLDN20, P56880]', 'below the threshold'),
  ('TFSRRPKTRV [CD226, Q15762]', 'below the threshold'),
  ('GVHSNDHSVV [LPAR1, Q92633]', 'below the threshold'),
  ('SSSVNVSSNL [CXCR1, P25024]', 'below the threshold'),
  ('IGHEDLETAV [DGKI, O75912]', 5.22),
  ('RGKNRRQSIF [CDK18, Q07002]', 'below the threshold'),
  ('STYCDYTIEI [FAM71C, Q8NEG0]', 'below the threshold'),
  ('KIEDVEITLV [FCHSD2, O94868]', 4.76),
  ('ELKAEDEVQI [DCHS2, Q6V1P9]', 'below the threshold'),
  ('IKLETKKTKL [SLC15A2, Q16348]', 'below the threshold'),
  ('KKTPVSRSHL [SLC22A3, O75751]', 'below the threshold'),
  ('ADEMICITTL [CACNA1D, Q01668]', 3.86),
  ('GDSSRKEYFI [GYPC, P04921]', 'below the threshold'),
  ('GQNMTVSVVI [PRLHR, P49683]', 'below the threshold');
